Target: Human CB1 receptor (hCB1) (Homo sapiens)
Construct: purchased Receptor Biology
Sequence (P21554 whole entry): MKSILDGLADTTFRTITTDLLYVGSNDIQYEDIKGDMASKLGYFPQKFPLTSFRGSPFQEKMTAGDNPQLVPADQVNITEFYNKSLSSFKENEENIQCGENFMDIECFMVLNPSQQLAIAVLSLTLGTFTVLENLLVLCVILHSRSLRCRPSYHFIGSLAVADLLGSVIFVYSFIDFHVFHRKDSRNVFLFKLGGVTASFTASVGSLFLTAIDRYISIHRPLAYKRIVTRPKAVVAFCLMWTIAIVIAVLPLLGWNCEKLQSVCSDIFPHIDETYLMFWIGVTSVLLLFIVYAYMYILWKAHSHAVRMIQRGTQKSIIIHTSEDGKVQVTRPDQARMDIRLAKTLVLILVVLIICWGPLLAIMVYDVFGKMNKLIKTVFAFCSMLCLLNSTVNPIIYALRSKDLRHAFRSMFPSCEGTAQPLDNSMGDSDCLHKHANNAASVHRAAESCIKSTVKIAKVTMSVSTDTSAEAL
Test: hCB1 GTPγS binding
Type: biochemical
Conditions: maximal stimulated binding determined with 10 μM Win 55,212-2
Observation type: Emax (%)
The answer is to be given in %; state only the numeric part.

These solved cases illustrate the format of a correct answer.
Compound: CNC(=O)CC[C@@H](CO)N(C)C(=O)c1ccc2c(c1)c1c(n2C)CC[C@@H](C2CCOCC2)C1
Output unit: %
Emax: 124
//
Compound: Cn1c2c(c3cc(C(=O)N4CCC[C@H](NC(=O)C5CC5)C4)ccc31)CC(C1CCOCC1)CC2 (some centres unmarked)
Output unit: %
Emax: 119
//
Compound: CCn1c2c(c3cc(C(=O)N(C)CCCC(=O)NC)ccc31)CC(C1CCOCC1)CC2 (centres unmarked)
Output unit: %
Emax: 121
//
Compound: CN(C)NC(=O)CCCN(C)C(=O)c1ccc2c(c1)c1c(n2C)CC[C@@H](C2CCOCC2)C1
Output unit: %
Emax: 96

Would you kindly look at the next entry?
Noted for Cn1c2c(c3cc(C(=O)N4CCCC(NC(=O)C5CC5)C4)ccc31)CC(C1CCOCC1)CC2 (centres unmarked) : its Emax reads 115
